# targetDesc: recombinant soluble homotrimeric HA of A/duck/Yangzhou/02/2005 (H8N4) (Influenza A virus A/duck/Yangzhou/02/2005 (H8N4))
# procedureText: HA microarray, BCC supernatant
# statedConditions: remark: other sources report otherwise
valueKind: Trimeric HA Binding RLU (RLU)
Form entry: value (RLU) — number only.

Please review the entries below; each comes with its answer.
>  <binder>
TCN-533 (5256_A17) (antibody, V domains shown) VH: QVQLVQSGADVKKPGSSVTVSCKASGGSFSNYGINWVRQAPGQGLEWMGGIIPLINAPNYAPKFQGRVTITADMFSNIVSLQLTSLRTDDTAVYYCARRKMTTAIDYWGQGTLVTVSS VL: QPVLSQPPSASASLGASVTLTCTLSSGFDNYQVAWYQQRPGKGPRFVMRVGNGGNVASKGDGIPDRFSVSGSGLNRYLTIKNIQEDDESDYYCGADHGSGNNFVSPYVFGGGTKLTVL

>  <unitsText>
RLU

>  <Trimeric HA Binding RLU>
24700

$$$$
>  <binder>
TCN-550 (5096_F06) (antibody, V domains shown) VH: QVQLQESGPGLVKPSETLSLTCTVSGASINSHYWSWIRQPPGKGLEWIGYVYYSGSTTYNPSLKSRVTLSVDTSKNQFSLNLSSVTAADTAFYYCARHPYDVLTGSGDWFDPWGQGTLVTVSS VL: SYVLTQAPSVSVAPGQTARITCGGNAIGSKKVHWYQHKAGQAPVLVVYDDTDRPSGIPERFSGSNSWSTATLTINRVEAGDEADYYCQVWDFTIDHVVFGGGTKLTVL

>  <unitsText>
RLU

>  <Trimeric HA Binding RLU>
407

$$$$
>  <binder>
TCN-534 (5249_B02) (antibody, V domains shown) VH: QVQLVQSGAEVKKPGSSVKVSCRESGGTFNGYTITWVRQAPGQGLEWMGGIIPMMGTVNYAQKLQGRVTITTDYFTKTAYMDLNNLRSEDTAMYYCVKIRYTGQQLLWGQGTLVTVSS VL: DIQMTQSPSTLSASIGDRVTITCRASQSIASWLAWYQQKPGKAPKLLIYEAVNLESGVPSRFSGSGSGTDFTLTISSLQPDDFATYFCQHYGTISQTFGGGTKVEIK

>  <unitsText>
RLU

>  <Trimeric HA Binding RLU>
46500

$$$$

Shifting focus to the binder that follows.
I am curious: what Trimeric HA Binding RLU value has been reported for TCN-542 (5079_A16) (antibody, V domains shown) VH: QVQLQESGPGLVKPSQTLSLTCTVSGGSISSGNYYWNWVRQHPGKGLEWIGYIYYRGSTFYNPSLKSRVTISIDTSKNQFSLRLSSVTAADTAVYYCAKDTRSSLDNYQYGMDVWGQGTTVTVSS VL: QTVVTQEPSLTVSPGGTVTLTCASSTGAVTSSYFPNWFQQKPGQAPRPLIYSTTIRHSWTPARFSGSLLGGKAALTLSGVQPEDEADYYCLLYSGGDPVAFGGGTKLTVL ?
332
